System name: human FGFR2b (Homo sapiens, UniProt P21802)
Sequence (P21802 22-822 isoform P21802-3 limits assumed): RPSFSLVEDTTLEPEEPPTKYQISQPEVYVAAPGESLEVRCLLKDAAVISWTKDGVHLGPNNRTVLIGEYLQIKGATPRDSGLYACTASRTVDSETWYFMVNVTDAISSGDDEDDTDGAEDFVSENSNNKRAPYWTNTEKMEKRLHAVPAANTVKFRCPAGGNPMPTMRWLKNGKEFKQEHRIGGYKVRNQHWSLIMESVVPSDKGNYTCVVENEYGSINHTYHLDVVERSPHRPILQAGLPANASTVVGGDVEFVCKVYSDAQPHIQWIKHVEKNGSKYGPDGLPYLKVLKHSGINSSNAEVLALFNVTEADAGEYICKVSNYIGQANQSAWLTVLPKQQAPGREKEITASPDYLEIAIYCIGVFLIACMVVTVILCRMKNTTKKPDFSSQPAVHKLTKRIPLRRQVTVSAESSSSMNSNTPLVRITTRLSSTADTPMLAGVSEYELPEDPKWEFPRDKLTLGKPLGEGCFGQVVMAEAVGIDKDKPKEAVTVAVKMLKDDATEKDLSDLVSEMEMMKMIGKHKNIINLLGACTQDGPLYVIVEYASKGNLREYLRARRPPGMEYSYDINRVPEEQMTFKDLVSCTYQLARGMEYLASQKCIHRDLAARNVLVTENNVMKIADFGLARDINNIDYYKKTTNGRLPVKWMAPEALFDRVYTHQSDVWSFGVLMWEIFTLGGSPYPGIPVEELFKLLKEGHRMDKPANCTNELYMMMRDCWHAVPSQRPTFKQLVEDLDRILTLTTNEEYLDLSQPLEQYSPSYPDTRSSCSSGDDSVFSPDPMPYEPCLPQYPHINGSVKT
Assay method text: SPR affinity determination, human FGFR2b (Example 9)
Type: binding
Protocol: For affinity determination, antibodies were captured by anti-human Fc antibodies, and used in the affinity assay based on surface plasmon resonance (SPR) technology. SPR signals were analyzed to calculate the association rates (ka) and dissociation rates (kd) by using the one-to-one Langmuir binding model (BIA Evaluation Software, GE Life Sciences). The equilibrium dissociation constant (KD) was calculated as the ratio of kd/ka. […]
Recorded metric: kd
Answers without a unit are incomplete; give the number and then its unit.

Report kd for BGAm1823: parental murine anti-FGFR2b antibody; VH SEQ ID NO: 28, VL SEQ ID NO: 30 (antibody, V domains shown, Synthetic: VH AA; Synthetic: VL AA) VH: EVQLQQSGAELVKPGASVKISCKASGYAFSIYWMNWVKQRPGKGLEWIGQIYPENGDTNYNGKFKGKATLTADKSSSTAYMHLSSLTSEDSAVYFCARGGFDYWGQGTTLTVSS VL: NIVMTQSPASLSASVGETVTITCRASENIYSNLAWYQQKQGKSPQLLVYTATNLADGVPSRFSGSGSGTQFSLKINSLQPEDFGSYYCQHFYGILYTFGSGTRLEIK please.
1.85E−03 S^−1

// data source = patent US20250222125A1
